These measurements were taken from paper PMC4007430.

TEST SYSTEM: T1, CCL22 labeled with Alexa Fluor 647, O00626
T1 chain: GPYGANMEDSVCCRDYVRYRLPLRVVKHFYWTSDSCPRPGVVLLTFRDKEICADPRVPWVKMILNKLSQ
TEST DETAILS: flow cytometry on cells
EXPERIMENTAL SETUP: chain shown with the change;; parent: est. 47; read off a plot
MEASUREMENT NAME: response (MFI)
Form entry: value (MFI) — number only.

response for HA-ACKR2 (epitope-tagged human ACKR2, wild type), O00590 YYYDY to YFYDY (second tyrosine of the motif to F) (protein) MAATASPQPLATEDADSENSSFYFYDYLDEVAFMLCRKDAVVSFGKVFLPVFYSLIFVLGLSGNLLLLMVLLRYVPRRRMVEIYLLNLAISNLLFLVTLPFWGISVAWHWVFGSFLCKMVSTLYTINFYSGIFFISCMSLDKYLEIVHAQPYHRLRTRAKSLLLATIVWAVSLAVSIPDMVFVQTHENPKGVWNCHADFGGHGTIWKLFLRFQQNLLGFLLPLLAMIFFYSRIGCVLVRLRPAGQGRALKIAAALVVAFFVLWFPYNLTLFLHTLLDLQVFGNCEVSQHLDYALQVTESIAFLHCCFSPILYAFSSHRFRQYLKAFLAAVLGWHLAPGTAQASLSSCSESSILTAQEEMTGMNDLGERQSENYPNKEDVGNKSA ?
71
